Test: clinical
Conditions: human, in vivo

compoundString	quantityUnit	concentration at 3 h
N=C(N)NCCC[C@H](N)C(=O)O	µM	98

Measured values drawn from patent US9415030B2 for this set.
